Substrate: O=c1ccn([C@@H]2O[C@H](COP(=O)(O)OP(=O)(O)O[C@H]3O[C@H](CO)[C@H](O)[C@H](O)[C@H]3O)[C@@H](O)[C@H]2O)c(=O)[nH]1
Assay: UDP release, Michaelis-Menten fit
Format: biochemical, Homo sapiens
Details: 2 mM Gb4 glycan fixed, 20 mM HEPES pH 7.4, 0.1 mM MnCl2
assayReadout: Km (µM)

* soluble β3GalT5-1 (HEK293) (Homo sapiens; S66A) (protein, soluble luminal domain N29-V310, no TM; expressed in HEK293 cells, complex-type N-glycans) NPFKEQSFVYKKDGNFLKLPDTDCRQTPPFLVLLVTSAHKQLAERMAIRQTWGKERMVKGKQLKTFFLLGTTSSAAETKEVDQESQRHGDIIQKDFLDVYYNLTLKTMMGIEWVHRFCPQAAFVMKTDSDMFINVDYLTELLLKKNRTTRFFTGFLKLNEFPIRQPFSKWFVSKSEYPWDRYPPFCSGTGYVFSGDVASQVYNVSKSVPYIKLEDVFVGLCLERLNIRLEELHSQPTFFPGGLRFSVCLFRRIVACHFIKPRTLLDYWQALENSRGEDCPPV | 350
* soluble β3GalT5-1 (HEK293) (Homo sapiens; Q69A/S66A) (protein, soluble luminal domain N29-V310, no TM; expressed in HEK293 cells, complex-type N-glycans) NPFKEQSFVYKKDGNFLKLPDTDCRQTPPFLVLLVTSAHKALAERMAIRQTWGKERMVKGKQLKTFFLLGTTSSAAETKEVDQESQRHGDIIQKDFLDVYYNLTLKTMMGIEWVHRFCPQAAFVMKTDSDMFINVDYLTELLLKKNRTTRFFTGFLKLNEFPIRQPFSKWFVSKSEYPWDRYPPFCSGTGYVFSGDVASQVYNVSKSVPYIKLEDVFVGLCLERLNIRLEELHSQPTFFPGGLRFSVCLFRRIVACHFIKPRTLLDYWQALENSRGEDCPPV | 320

Source: paper PMC11969553
